// provenance: paper PMC11625470

- targetDesc: human concentrative nucleoside transporter 3 (hCNT3) (Homo sapiens, UniProt Q9HAS3)
- Sequence (Q9HAS3 whole entry): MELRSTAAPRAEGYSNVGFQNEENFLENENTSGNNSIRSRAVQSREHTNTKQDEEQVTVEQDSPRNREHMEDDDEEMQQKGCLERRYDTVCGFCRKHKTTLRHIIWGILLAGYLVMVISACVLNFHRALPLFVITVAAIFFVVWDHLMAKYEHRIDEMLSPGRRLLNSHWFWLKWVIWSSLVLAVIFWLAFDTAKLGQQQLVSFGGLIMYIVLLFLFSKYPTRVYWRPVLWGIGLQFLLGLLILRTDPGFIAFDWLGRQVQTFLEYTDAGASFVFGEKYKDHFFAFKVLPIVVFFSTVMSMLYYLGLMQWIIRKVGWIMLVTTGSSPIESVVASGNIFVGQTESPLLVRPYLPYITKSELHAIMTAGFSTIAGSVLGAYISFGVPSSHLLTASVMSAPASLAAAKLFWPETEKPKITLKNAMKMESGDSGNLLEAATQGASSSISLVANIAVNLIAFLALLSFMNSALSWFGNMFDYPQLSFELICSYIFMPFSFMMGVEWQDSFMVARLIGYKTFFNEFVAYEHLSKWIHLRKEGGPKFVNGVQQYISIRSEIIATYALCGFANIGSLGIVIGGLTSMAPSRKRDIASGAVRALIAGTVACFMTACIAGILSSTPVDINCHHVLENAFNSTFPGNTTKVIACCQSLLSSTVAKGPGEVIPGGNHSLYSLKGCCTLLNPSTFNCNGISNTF
- procedureSummary: cold competition of [3H]-ribavirin uptake in oocytes
- Assay type: cell-based
readoutLabel: IC50

Lookup: Give IC50 for N#C[C@@]1(c2ccc3c(N)ncnn23)O[C@H](CO)[C@@H](O)[C@H]1O [GS4, GS-441524]
Found: ~400 µM
